# Tested on: HCMV wild-type
# Test Name: HCMV yield assay
# Type: cell-based, human cytomegalovirus
# Condition Notes: Human betaherpesvirus 5, Fibroblast; human foreskin fibroblasts; read-out: IC50 (ug/ml) HCMV
Measured Attribute: IC50

In one line, give reported IC50 of the entry `COc1cc(OC)c(NC(=S)Nc2ccc(NC(=O)c3ccco3)c(C#N)c2)cc1Cl` .
2.5 µg/mL

In one line, give reported IC50 of the entry `COc1cc(OC)c(NC(=S)Nc2ccc(NC(=O)c3ccco3)c(C(=O)c3ccccc3)c2)cc1Cl` .
> 10 µg/mL

In one line, give reported IC50 of the entry `COc1cc(OC)c(NC(=S)Nc2cc(OC)c(NC(=O)c3ccco3)cc2C)cc1Cl` .
> 50 µg/mL

In one line, give reported IC50 of the entry `COc1cc(OC)c(NC(=S)Nc2ccc(NC(=O)c3ccco3)c(C)c2)cc1Cl` .
6 µg/mL

In one line, give reported IC50 of the entry `COc1cc(OC)c(NC(=S)Nc2ccc(NC(=O)c3ccco3)cc2OC)cc1Cl` .
> 10 µg/mL

In one line, give reported IC50 of the entry `COc1cc(OC)c(NC(=S)Nc2ccc(NC(=O)c3ccco3)cc2C(F)(F)F)cc1Cl` .
2 µg/mL

New cases:
In one line, give reported IC50 of the entry `COc1cc(OC)c(NC(=S)Nc2ccc(NC(=O)c3ccco3)cc2C)cc1Cl` .
8 µg/mL

In one line, give reported IC50 of the entry `COc1cc(OC)c(NC(=S)Nc2cc(OC)c(NC(=O)c3ccco3)cc2OC)cc1Cl` .
> 10 µg/mL

Just for reference, patent US6410571B1 is where these values come from.
